Exercise: for every item that follows, state its recorded pKd.
Target: T1, PUF4 RNA-binding domain (Saccharomyces cerevisiae, UniProt P25339 537-888)
T1 sequence: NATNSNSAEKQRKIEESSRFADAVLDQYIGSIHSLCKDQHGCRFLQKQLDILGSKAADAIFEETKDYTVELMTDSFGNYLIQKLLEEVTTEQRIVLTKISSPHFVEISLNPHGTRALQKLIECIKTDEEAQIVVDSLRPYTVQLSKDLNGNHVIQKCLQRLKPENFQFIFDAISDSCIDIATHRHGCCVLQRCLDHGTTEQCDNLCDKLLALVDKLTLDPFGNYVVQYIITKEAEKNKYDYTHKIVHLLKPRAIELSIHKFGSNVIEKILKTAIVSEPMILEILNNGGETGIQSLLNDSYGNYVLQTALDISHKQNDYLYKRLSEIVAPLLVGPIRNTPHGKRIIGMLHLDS
Assay: Mg; RNA-MaP; 20 mM Na-HEPES pH 7.4, 30 mM KOAc, 0.75 mM MgCl2, 0.1% Tween-20, 5% glycerol, 0.1 mg/mL BSA, 2 mM DTT; 25 C; 0.0125-409.6 nM protein
Conditions: tags: N-His6-TEV cleaved; C-SNAP kept, Cy3B-labelled; label: tethered on chip by stalled RNA polymerase
One number for each entry, as −log10 of the molar value.

Some binders with known pKd results, for comparison:
BINDER | ENDPOINT VALUE
UCUCUUUGUACUUUUAUCUCUU (ssRNA) [Ib_S1_P5E.1_K5.1_C5.1_H5.1_A5.1_[T5C]_[A7T]_F5.1_T5.1] | 8.41
Id_ii_S2_P3E.2_K3.1_C3.2_[C-2T]_[T-1A]_H3.1_A3.1_F3.1_T3.2_[T9A]_[A10C] (ssRNA) RNA: UUUGAUUAAUAUGAUAUCGUUCUUUCUUAUGUAUAUAACUUCUUUCUCGAUAUCAUAUUAAUCUUU | 7.79
UCUCUUUGUAUAUAUUAUUUCUCUU (ssRNA) [Id_ii_S1_P4E.3_K4.2_C4.2_[C-2T]_[T-1G]_H4.2_A4.1_F4.1_T4.2_[G10T]] | 8.35
UCUCUUCCUGUAUAUAAUUCUCUU (ssRNA) [Id_ii_S1_P3E.2_K3.1_C3.2_[T-1C]_H3.1_A3.1_F3.1_T3.2_[T9A]_[A10T]] | 8.27
UCUCUUUGUACCACCCUCUCUU (ssRNA) [Ic_S1_P5E.1_K5.1_C5.1_H5.1_A5.1_[T5C]_[T6C]_F5.1_[T8C]_[T9C]_[A10C]_T5.1] | 6.28
UCUCUUUCUUGUAAAUAUGUCUCUU (ssRNA) [Id_iii_S1_P3E.8_K3.4_C3.3_H3.1_A3.2_F3.1_T3.2_[A10G]] | 7.54
UCUCUUUUUAUAUAUACAUCUCUU (ssRNA) [Id_ii_S1_P3E.3_K3.2_C3.2_[C-2T]_H3.2_A3.1_F3.1_T3.2_[T9C]] | 5.92
Id_ii_S2_P3E.3_K3.2_C3.2_[C-2T]_[T-1C]_H3.2_A3.1_F3.1_T3.2 (ssRNA) RNA: UUUGAUUAAUAUGAUAUCGUUCUUUCUUCUAUAUAUAUAUUCUUUCUCGAUAUCAUAUUAAUCUUU | 7.15

Report pKd for each item below.
1. Ib_S4_P5E.1_K5.1_C5.1_H5.1_[T3C]_[A4C]_A5.1_F5.1_T5.1 (ssRNA) RNA: UUUGACAACUGAUCGUUCUUUCUUGCCUUAUUAUUCUUUCUCGAUCAGUUGUCUUU
2. UCUCUUAUUGUAUAUAACUCUCUU (ssRNA) [Id_ii_S1_P3E.2_K3.1_C3.2_[C-2A]_H3.1_A3.1_F3.1_T3.2_[T9A]_[A10C]]

Return:
[6.06, 7.89]

Report pKd for each item below.
1. Id_ii_S2_P4E.3_K4.2_C4.2_H4.2_A4.1_F4.1_T4.2_[G10C]_[T11G] (ssRNA) RNA: UUUGAUUAAUAUGAUAUCGUUCUUUCUCUUAUAUAUUACGUUCUUUCUCGAUAUCAUAUUAAUCUUU
2. UCUCUUAUUGUAUUAUUAAAUCUCUU (ssRNA) [Id_ii_S1_P5E.2_K5.1_C5.2_[C-2A]_H5.1_A5.1_F5.1_T5.2_[T11A]]
3. Ie_S2_P4E.1_K4.1_C4.1_H4.1_A4.1_F4.1_[+9C]_T4.1 (ssRNA) RNA: UUUGAUUAAUAUGAUAUCGUUCUUUCUUGUAUAUUACUUCUUUCUCGAUAUCAUAUUAAUCUUU
4. Ie_S2_P3E.2_K3.1_C3.2_H3.1_[+1TTT]_A3.1_F3.1_T3.2 (ssRNA) RNA: UUUGAUUAAUAUGAUAUCGUUCUUUCUCUUUUUGUAUAUAUAUUCUUUCUCGAUAUCAUAUUAAUCUUU
5. UCUCUUUGUAAAGCGUCUCUU (ssRNA) [Ic_S1_P4E.1_K4.1_C4.1_H4.1_A4.1_[T5A]_[T7G]_F4.1_[T8C]_[A9G]_T4.1]
6. Ic_S2_P4E.1_K4.1_C4.1_H4.1_A4.1_[T5C]_[A6C]_[T7C]_F4.1_T4.1 (ssRNA) RNA: UUUGAUUAAUAUGAUAUCGUUCUUUCUUGUACCCUAUUCUUUCUCGAUAUCAUAUUAAUCUUU
7. UCUCUUCUACACUAUACAUCUCUU (ssRNA) [Id_ii_S1_P3E.4_K3.3_C3.2_H3.3_A3.1_F3.1_T3.2_[T9C]]

Return:
7.73
7.87
8.88
8.88
5.70
8.83
5.65

Report pKd for each item below.
1. Id_ii_S4_P3E.3_K3.2_C3.2_[C-2A]_H3.2_A3.1_F3.1_T3.2_[A10G] (ssRNA) RNA: UUUGACAACUGAUCGUUCUUUCUAUUAUAUAUAUGUUCUUUCUCGAUCAGUUGUCUUU
2. Id_iii_S2_P5E.8_K5.4_C5.3_H5.1_A5.2_F5.1_T5.2_[A12T] (ssRNA) RNA: UUUGAUUAAUAUGAUAUCGUUCUUUCUUCUUGUAAUAUUAUUUUCUUUCUCGAUAUCAUAUUAAUCUUU
3. UCUCUUCAUAUAUUAUUACGUCUCUU (ssRNA) [Id_ii_S1_P5E.3_K5.2_C5.2_[T-1A]_H5.2_A5.1_F5.1_T5.2_[T11C]_[A12G]]
4. UCUCUUUGUAAUGUCUCUCUU (ssRNA) [Ic_S1_P4E.1_K4.1_C4.1_H4.1_A4.1_[T5A]_[A6T]_[T7G]_F4.1_[A9C]_T4.1]

Return:
[6.01, 8.58, 6.36, 6.32]

Value source: paper PMC9352680
